Values were extracted from patent US20030211979A1.

measured_target: FAP (Homo sapiens, UniProt Q12884)
Construct: expressed in transfected cells; host or cells: 293 cells stably transfected with FAP; cell extract
Sequence (Q12884 1-760): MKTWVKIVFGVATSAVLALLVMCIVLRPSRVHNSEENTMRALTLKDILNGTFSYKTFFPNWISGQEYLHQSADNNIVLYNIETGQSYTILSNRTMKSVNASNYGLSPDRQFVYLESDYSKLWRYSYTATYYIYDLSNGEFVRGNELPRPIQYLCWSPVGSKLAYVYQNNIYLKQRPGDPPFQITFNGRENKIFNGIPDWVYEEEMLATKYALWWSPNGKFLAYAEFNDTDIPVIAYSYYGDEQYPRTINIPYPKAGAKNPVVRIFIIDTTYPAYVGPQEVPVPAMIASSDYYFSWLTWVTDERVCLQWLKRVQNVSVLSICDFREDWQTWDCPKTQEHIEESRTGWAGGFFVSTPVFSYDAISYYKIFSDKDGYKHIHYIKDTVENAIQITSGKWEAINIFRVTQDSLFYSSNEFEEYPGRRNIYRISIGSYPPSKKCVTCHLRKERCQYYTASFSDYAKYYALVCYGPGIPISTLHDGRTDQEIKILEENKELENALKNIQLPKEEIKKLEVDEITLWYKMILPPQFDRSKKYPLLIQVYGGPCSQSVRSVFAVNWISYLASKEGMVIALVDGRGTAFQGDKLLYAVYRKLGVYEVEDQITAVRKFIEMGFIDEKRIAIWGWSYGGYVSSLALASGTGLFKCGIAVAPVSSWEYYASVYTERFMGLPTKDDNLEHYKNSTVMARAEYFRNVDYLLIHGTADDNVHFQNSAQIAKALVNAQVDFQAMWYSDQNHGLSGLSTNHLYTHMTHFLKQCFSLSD
assay_remarks: Assay for cleavage of MNA substrates by FAP
Assay type: biochemical
condition_summary: 1 ng FAP enzyme (extract of FAP-transfected 293 cells), 20 μl 2.5 mM substrate, 1 hour at room temperature, fluorescence Ex 355/Em 405 nm, FAP-negative 293 control subtracted
Experimental: Assay for Cleavage of MNA Substrates by FAP: Buffer A: 100 mM Tris HCl pH 7.8, 100 mM NaCl Cell extract from 293 cells stably transfected with FAP prepared as described (see Park, et al., Fibroblast Activation Protein, a Dual Specificity Serine Protease expressed in human tumor stromal fibroblasts. (1999) J. Biol. Chem. 36505-12.). A similar extract was also prepared from parental 293 control cells without FAP. […]
attribute_measured: Cleavage (µM)
Answers are plain numbers, in µM.

Here's what some known entries look like.
[
  {
    "substance": "[2-(3-Carboxymethyl-phenyl)-acetyl]-N-MeIle-Ala-Gly-Pro-MNA (IAGP; N-terminal 3-carboxymethylphenylacetyl, N-methyl; C-terminal MNA; printed: Ile-Ala-Gly-Pro-)",
    "measured_target": "FAP (Homo sapiens, UniProt Q12884)",
    "result_units": "µM",
    "Cleavage": 15.36
  },
  {
    "substance": "[2-(3-Carboxymethyl-phenyl)-acetyl]-Pro-Ala-Gly-Pro-MNA (PAGP; N-terminal 3-carboxymethylphenylacetyl; C-terminal MNA; printed: Pro-Ala-Gly-Pro-)",
    "measured_target": "FAP (Homo sapiens, UniProt Q12884)",
    "result_units": "µM",
    "Cleavage": 2.80
  },
  {
    "substance": "[2-(4-Carboxymethyl-phenyl)-acetyl]-N-MeVal-Ala-Gly-Pro-MNA (VAGP; N-terminal 4-carboxymethylphenylacetyl, N-methyl; C-terminal MNA; printed: Val-Ala-Gly-Pro-)",
    "measured_target": "FAP (Homo sapiens, UniProt Q12884)",
    "result_units": "µM",
    "Cleavage": 13.39
  }
]

Reported Cleavage for [2-(3-Carboxymethyl-phenyl)-acetyl]-N-MeLeu-Ala-Gly-Pro-MNA (LAGP; N-terminal 3-carboxymethylphenylacetyl, N-methyl; C-terminal MNA; printed: Leu-Ala-Gly-Pro-) : what is it? 12.00
